Test: In vivo pharmacokinetics study in rats
Settings: male, Sprague-Dawley, rat, plasma, po, 10 mg/kg, Cmax, p.o. 10 mg/kg
assayEndpoint: Cmax

> print(dat)
                                entrysmiles  assayendpoint   measvalue
1  Cc1cc(C)cc(S(=O)(=O)c2c(C(=O)NCCCCNS(=O)(=O)c3cccnc3)[nH]c3ccc(Cl)cc23)c1           Cmax  ≤ 80 ng/mL

* * *

System: HIV-1 WT strain (IIIB)
Test: Anti-HIV activity against WT HIV-1
Conditions: WT HIV-1 IIIB
Overview of reported SI IIIB (CC50/EC50 ratio) across a group of compounds:
assayEndpoint: SI IIIB (CC50/EC50 ratio)

> print(dat)
                                entrysmiles                     tgt              assayendpoint  measvalue
1  Cc1cc(C)cc(S(=O)(=O)c2c(C(=O)NCCCCNS(=O)(=O)c3cccs3)[nH]c3ccc(Cl)cc23)c1  HIV-1 WT strain (IIIB)  SI IIIB (CC50/EC50 ratio)       1953
2  Cc1cc(C)cc(S(=O)(=O)c2c(C(=O)NCCNS(=O)(=O)c3cccc(F)c3)[nH]c3ccc(Cl)cc23)c1  HIV-1 WT strain (IIIB)  SI IIIB (CC50/EC50 ratio)       5151
3  Cc1cc(C)cc(S(=O)(=O)c2c(C(=O)NCCCCCNS(=O)(=O)c3ccc(Br)cc3)[nH]c3ccc(Cl)cc23)c1  HIV-1 WT strain (IIIB)  SI IIIB (CC50/EC50 ratio)        501
4  Cc1cc(C)cc(S(=O)(=O)c2c(C(=O)NCCCCCNS(=O)(=O)c3ccc(F)cc3)[nH]c3ccc(Cl)cc23)c1  HIV-1 WT strain (IIIB)  SI IIIB (CC50/EC50 ratio)       7527
5  Cc1cc(C)cc(S(=O)(=O)c2c(C(=O)NCCCNS(=O)(=O)c3cccc(F)c3)[nH]c3ccc(Cl)cc23)c1  HIV-1 WT strain (IIIB)  SI IIIB (CC50/EC50 ratio)       5799
